Tested on: Echinochloa crus-galli (ECHCG)
Protocol Details: Post-emergence efficacy, glasshouse spray test
Assay type: in vivo
Assay Setup: Echinochloa crus-galli, post-emergence, 312 h; application rate 500 g/Ha; evaluated after 13 days; read-out: Control of weed species ECHCG after post-emergence application (100=total damage to plant; 0=no damage to plant)
Reported Endpoint: pest or weed control at 500 g/ha

{"Compound": "CC(CC(=O)O)[n+]1ccc2ccccc2n1 (stereo not drawn) [Compound A115, 2,2,2-trifluoroacetate]", "Tested System": "Echinochloa crus-galli (ECHCG)", "Recorded Value": "20%"}
{"Compound": "COC(=O)C(C)[n+]1ccc2ccccc2n1 (stereo not drawn)", "Tested System": "Echinochloa crus-galli (ECHCG)", "Recorded Value": "30%"}
{"Compound": "O=C(NC(C[n+]1ccc2ccccc2n1)C(=O)O)OCc1ccccc1 (stereo not drawn)", "Tested System": "Echinochloa crus-galli (ECHCG)", "Recorded Value": "20%"}
{"Compound": "CC(C)(C[n+]1ccc2ccccc2n1)C(=O)O [Compound A113, 2,2,2-trifluoroacetate]", "Tested System": "Echinochloa crus-galli (ECHCG)", "Recorded Value": "40%"}
{"Compound": "COC(=O)c1cccc2cc[n+](CCS(=O)(=O)[O-])nc12", "Tested System": "Echinochloa crus-galli (ECHCG)", "Recorded Value": "30%"}
{"Compound": "Cc1cccc2n[n+](CCS(=O)(=O)[O-])ccc12", "Tested System": "Echinochloa crus-galli (ECHCG)", "Recorded Value": "30%"}
{"Compound": "COC(=O)c1ccc2n[n+](CCS(=O)(=O)[O-])ccc2c1", "Tested System": "Echinochloa crus-galli (ECHCG)", "Recorded Value": "10%"}
{"Compound": "CN(C)C(=O)c1ccc2cc[n+](CCS(=O)(=O)[O-])nc2c1", "Tested System": "Echinochloa crus-galli (ECHCG)", "Recorded Value": "80%"}
{"Compound": "COC(=O)c1ccc2cc[n+](CCS(=O)(=O)[O-])nc2c1", "Tested System": "Echinochloa crus-galli (ECHCG)", "Recorded Value": "20%"}

---

System: Eleusine indica (ELEIN)
Protocol Details: Post-emergence efficacy, glasshouse spray test
Format: in vivo
Assay Setup: Eleusine indica, post-emergence, 312 h; application rate 1000 g/Ha; evaluated after 13 days; read-out: Control of weed species ELEIN after post-emergence application (100=total damage to plant; 0=no damage to plant)
Returns one of True or False; True when pest or weed control at 1000 g/ha is >= 70%.

{"Molecule": "Cc1c[n+](CCC(=O)O)nc2ccccc12", "Tested System": "Eleusine indica (ELEIN)", "Assigned Class": "False"}
{"Molecule": "c1ccc2n[n+](Cc3nnn[n-]3)ccc2c1", "Tested System": "Eleusine indica (ELEIN)", "Assigned Class": "False"}
{"Molecule": "O=S(=O)([O-])NCC[n+]1ccc2ccccc2n1", "Tested System": "Eleusine indica (ELEIN)", "Assigned Class": "True"}
{"Molecule": "O=C([O-])C[n+]1ccc2ccccc2n1 [Compound A2, 2-cinnolin-2-ium-2-ylacetate]", "Tested System": "Eleusine indica (ELEIN)", "Assigned Class": "True"}
{"Molecule": "COC(=O)C[n+]1cc(C)c2cccc(C)c2n1", "Tested System": "Eleusine indica (ELEIN)", "Assigned Class": "False"}
{"Molecule": "O=C(O)CC[n+]1ccc2ccccc2n1", "Tested System": "Eleusine indica (ELEIN)", "Assigned Class": "True"}
{"Molecule": "COC(=O)C[n+]1ccc2cc(C)ccc2n1", "Tested System": "Eleusine indica (ELEIN)", "Assigned Class": "False"}
